system: human maximum recommended daily dose, FDA database; assay: DSSTox (FDAMDD) FDA Maximum (Recommended) Daily Dose Database; details: TherapeuticCategory: platelet aggregation inhibitor; active compounds read low
Recorded measurements of maximum recommended daily dose (mmol/kg-bw/day), one per entry

CCCCC[C@H](O)/C=C/[C@@H]1[C@H]2C/C(=C/CCCC(=O)O)O[C@H]2C[C@H]1O
2.84e-08

Consider now this further compound.
Give the measured maximum recommended daily dose (mmol/kg-bw/day) of Clc1ccccc1CN1CCc2sccc2C1 .
0.0158

----------
system: human maximum recommended daily dose, FDA database; assay: DSSTox (FDAMDD) FDA Maximum (Recommended) Daily Dose Database; details: TherapeuticCategory: antidyskinetic; active compounds read low
readout_kind: maximum recommended daily dose (mmol/kg-bw/day)
Provide a numeric answer; units are not to be included.

Give the measured maximum recommended daily dose (mmol/kg-bw/day) of CCN(CC)CCNC(=O)c1cc(S(C)(=O)=O)ccc1OC .
0.0203

----------
test system: human maximum recommended daily dose, FDA database; assay: DSSTox (FDAMDD) FDA Maximum (Recommended) Daily Dose Database; conditions: TherapeuticCategory: bronchodilator; active compounds read low
readout_kind: maximum recommended daily dose (mmol/kg-bw/day)
Provide a numeric answer; units are not to be included.

Recorded results for 10 compounds are shown here.
OCc1cc(C(O)CNCCCCCCOCCCCc2ccccc2)ccc1O (centres undefined)
3.37e-06
Cn1c(=O)c2c(ncn2CC2OCCO2)n(C)c1=O
0.05
CNC(C)Cc1ccccc1OC (centres undefined)
0.0558
CC(C)NCC(O)c1ccc(O)c(O)c1 (centres undefined)
0.000791
Cn1c(=O)c2[nH]cnc2n(C)c1=O
0.0481
Cn1c(=O)c2c(ncn2CC(O)CO)n(C)c1=O (centres undefined)
0.236
Cc1ccc(C(=O)Oc2ccc(C(O)CNC(C)(C)C)cc2OC(=O)c2ccc(C)cc2)cc1 (centres undefined)
8.02e-05
Cn1c(=O)c2c(ncn2CCOC(=O)C(C)(C)Oc2ccc(Cl)cc2)n(C)c1=O
0.0297
CN[C@@H](C)[C@H](O)c1ccccc1
0.0101
Cn1c(=O)c2c(ncn2CCCNCC(O)c2cc(O)cc(O)c2)n(C)c1=O (centres undefined)
0.00257

Give the measured maximum recommended daily dose (mmol/kg-bw/day) of CCN(CCO)CCn1c(Cc2ccccc2)nc2c1c(=O)n(C)c(=O)n2C .
0.0778

Same read-out for CC[N+]1(C)[C@@H]2CC(OC(=O)[C@H](CO)c3ccccc3)C[C@H]1[C@@H]1O[C@@H]12 (some centres undefined) ?
2.43e-05

Same read-out for Cn1c(=O)c2c(ncn2CCO)n(C)c1=O ?
0.0372

Same read-out for COc1cc(C[C@@H]2NCCc3cc(O)c(O)cc32)cc(OC)c1OC ?
0.000869

----------
Tested on: human maximum recommended daily dose, FDA database
Assay: DSSTox (FDAMDD) FDA Maximum (Recommended) Daily Dose Database
Settings: TherapeuticCategory: antiparkinsonian; active compounds read low
Text: The Food and Drug Administration (FDA) Center for Drug Evaluation and Research, Office of Pharmaceutical Science, Informatics and Computational Safety Analysis Staff's Maximum Recommended Daily Dose (FDAMDD) database contains values for over 1200 pharmaceuticals listed in Martindale: The Extra Pharmacopoeia (1973, 1983, and 1993) and The Physicians' Desk Reference (1995 and 1999). […]
Recorded measurements of maximum recommended daily dose (mmol/kg-bw/day), one per entry
Provide a numeric answer; units are not to be included.

Recorded results for 3 compounds are shown here.
C#CCN(C)[C@H](C)Cc1ccccc1
0.000892
N[C@@H](Cc1ccc(O)c(O)c1)C(=O)O
0.674
C[C@@](Cc1ccc(O)c(O)c1)(NN)C(=O)O
0.00368

Consider now this further compound.
Give the measured maximum recommended daily dose (mmol/kg-bw/day) of NC(CO)C(=O)NNCc1ccc(O)c(O)c1O (centres undefined) .
0.0129
